Recorded values, source paper PMC8151276.

Recorded NanoBRET Fold Response, one value per entry.
target: GALR3 (Homo sapiens); construct: purchased Promega (in-house HiBiT-GPCR construct library, NanoBRET); experiment: NanoBRET screen HiBiT-GALR3 in HEK293; type: binding; settings: GALR3; tracer 1μM
Sequence (O60755 whole entry): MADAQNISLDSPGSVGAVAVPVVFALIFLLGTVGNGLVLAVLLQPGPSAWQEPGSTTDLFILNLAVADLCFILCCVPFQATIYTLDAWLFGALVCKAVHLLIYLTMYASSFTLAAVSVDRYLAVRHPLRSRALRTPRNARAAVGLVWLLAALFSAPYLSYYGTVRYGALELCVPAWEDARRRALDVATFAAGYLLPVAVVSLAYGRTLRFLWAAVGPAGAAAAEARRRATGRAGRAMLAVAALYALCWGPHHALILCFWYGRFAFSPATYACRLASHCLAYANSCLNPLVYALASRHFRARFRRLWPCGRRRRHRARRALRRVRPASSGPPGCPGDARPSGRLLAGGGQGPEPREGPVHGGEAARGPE
Answer with the value's number alone.

Some solved entries appear below for comparison.
{"smiles-code": "Cc1cc2c(s1)Nc1ccccc1N=C2N1CCN(CCCNC(=O)CCOCCOCCOCCOCCNC(=O)CCc2ccc3n2[B-](F)(F)[N+]2=C(c4ccc[nH]4)C=CC2=C3)CC1", "test-value": 0.87}
{"smiles-code": "CC(C)N(CC[C@H](c1ccccc1)c1cc(CCNC(=O)c2ccc(CNC(=O)CCc3ccc4n3[B-](F)(F)[N+]3=C(c5ccc[nH]5)C=CC3=C4)cc2)ccc1O)C(C)C", "test-value": 1.00}
{"smiles-code": "COc1ccccc1N1CCN(CCCCN2C(=O)c3ccc(CNC(=O)CCOCCOCCOCCOCCNC(=O)CCc4ccc5n4[B-](F)(F)[N+]4=C(c6ccc[nH]6)C=CC4=C5)cc3C2=O)CC1", "test-value": 1.10}
{"smiles-code": "O=C(CCc1ccc2n1[B-](F)(F)[N+]1=C(c3ccc[nH]3)C=CC1=C2)NCCOCCOCCNC(=O)OCCOCCN1CCN(C2=Nc3ccccc3Sc3ccccc32)CC1", "test-value": 0.73}

Now for another entry.
Inquiry: What value of NanoBRET Fold Response has been reported for the following compound? "COc1ccccc1N1CCN(CCCCN2C(=O)c3ccc(CNC(=O)CCOCCNC(=O)c4ccc(CNC(=O)CCc5ccc6n5[B-](F)(F)[N+]5=C(c7ccc[nH]7)C=CC5=C6)cc4)cc3C2=O)CC1"
Reply text: 0.92

###

target: PTGER2 (Homo sapiens, UniProt P43116); construct: purchased Promega (in-house HiBiT-GPCR construct library, NanoBRET); experiment: NanoBRET screen HiBiT-PTGER2 in HEK293; type: binding; details: PTGER2; tracer 1μM
Sequence (P43116 whole entry): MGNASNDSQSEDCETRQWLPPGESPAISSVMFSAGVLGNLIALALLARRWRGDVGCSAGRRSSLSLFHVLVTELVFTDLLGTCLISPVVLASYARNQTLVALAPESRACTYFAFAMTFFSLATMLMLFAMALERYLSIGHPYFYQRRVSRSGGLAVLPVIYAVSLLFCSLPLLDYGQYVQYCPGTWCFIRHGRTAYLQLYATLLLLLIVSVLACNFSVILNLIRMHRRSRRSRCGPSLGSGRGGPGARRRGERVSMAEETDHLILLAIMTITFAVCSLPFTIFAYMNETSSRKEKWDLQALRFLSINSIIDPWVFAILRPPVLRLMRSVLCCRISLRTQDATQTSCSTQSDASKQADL
observation-type: NanoBRET Fold Response
// return just the number, without any unit appended

Below are worked cases with known answers.
{"compound": "N#CN=C(NCCCOc1cccc(CN2CCCCC2)c1)NCCNC(=O)CCOCCOCCOCCOCCNC(=O)CCc1ccc2n1[B-](F)(F)[N+]1=C(c3ccc[nH]3)C=CC1=C2", "NanoBRET Fold Response": 1.03}
{"compound": "Cc1nc2n(c(=O)c1CCN1CCC(c3noc4cc(F)ccc34)CC1)CCCC2OC(=O)NCCOCCOCCOCCOCCNC(=O)CCc1ccc2n1[B-](F)(F)[N+]1=C(c3ccc[nH]3)C=CC1=C2 (stereo not drawn)", "NanoBRET Fold Response": 1.05}

Inquiry: Observed NanoBRET Fold Response on PTGER2 (Homo sapiens, UniProt P43116) for "COc1ccccc1N1CCN(CCCCN2C(=O)c3ccc(CNC(=O)CCOCCOCCOCCOCCNC(=O)CCc4ccc5n4[B-](F)(F)[N+]4=C(c6ccc[nH]6)C=CC4=C5)cc3C2=O)CC1" , please.
Reply text: 0.98

###

biological target: LTB4R (Homo sapiens, UniProt Q15722); construct: purchased Promega (in-house HiBiT-GPCR construct library, NanoBRET); assay: NanoBRET screen HiBiT-LTB4R in HEK293; format: binding; settings: LTB4R; tracer 1μM
Sequence (Q15722 whole entry): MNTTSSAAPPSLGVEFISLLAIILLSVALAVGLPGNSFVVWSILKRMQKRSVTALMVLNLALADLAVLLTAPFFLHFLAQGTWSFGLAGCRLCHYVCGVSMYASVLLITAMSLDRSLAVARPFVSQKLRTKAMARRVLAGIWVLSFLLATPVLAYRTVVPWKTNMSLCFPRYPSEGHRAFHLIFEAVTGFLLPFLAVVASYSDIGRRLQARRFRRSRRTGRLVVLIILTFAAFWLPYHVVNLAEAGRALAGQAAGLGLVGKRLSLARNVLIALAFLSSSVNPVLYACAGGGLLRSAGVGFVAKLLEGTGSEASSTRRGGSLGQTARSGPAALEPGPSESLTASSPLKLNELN
observation-type: NanoBRET Fold Response

These solved cases illustrate the format of a correct answer.
{"compound": "N#CN=C(NCCCOc1cccc(CN2CCCCC2)c1)NCCNC(=O)CCOCCOCCOCCOCCNC(=O)CCc1ccc2n1[B-](F)(F)[N+]1=C(c3ccc[nH]3)C=CC1=C2", "NanoBRET Fold Response": 0.99}
{"compound": "Cc1nc2n(c(=O)c1CCN1CCC(c3noc4cc(F)ccc34)CC1)CCCC2OC(=O)NCCOCCOCCOCCOCCNC(=O)CCc1ccc2n1[B-](F)(F)[N+]1=C(c3ccc[nH]3)C=CC1=C2 (stereo not drawn)", "NanoBRET Fold Response": 1.00}

Please look at the following compound next.
Inquiry: Find the measured NanoBRET Fold Response: item "CCCn1c(=O)c2[nH]c(-c3ccc(OCC(=O)NCCNC(=O)CCOCCNC(=O)c4ccc(CNC(=O)CCc5ccc6n5[B-](F)(F)[N+]5=C(c7ccc[nH]7)C=CC5=C6)cc4)cc3)nc2n(CCC)c1=O" , target or system LTB4R (Homo sapiens, UniProt Q15722).
Reply text: 1.11

###

target: LGR5 (Homo sapiens); construct: purchased Promega (in-house HiBiT-GPCR construct library, NanoBRET); assay: NanoBRET screen HiBiT-LGR5 in HEK293; type: binding; conditions: LGR5; tracer 0.1μM
Sequence (O75473 22-907): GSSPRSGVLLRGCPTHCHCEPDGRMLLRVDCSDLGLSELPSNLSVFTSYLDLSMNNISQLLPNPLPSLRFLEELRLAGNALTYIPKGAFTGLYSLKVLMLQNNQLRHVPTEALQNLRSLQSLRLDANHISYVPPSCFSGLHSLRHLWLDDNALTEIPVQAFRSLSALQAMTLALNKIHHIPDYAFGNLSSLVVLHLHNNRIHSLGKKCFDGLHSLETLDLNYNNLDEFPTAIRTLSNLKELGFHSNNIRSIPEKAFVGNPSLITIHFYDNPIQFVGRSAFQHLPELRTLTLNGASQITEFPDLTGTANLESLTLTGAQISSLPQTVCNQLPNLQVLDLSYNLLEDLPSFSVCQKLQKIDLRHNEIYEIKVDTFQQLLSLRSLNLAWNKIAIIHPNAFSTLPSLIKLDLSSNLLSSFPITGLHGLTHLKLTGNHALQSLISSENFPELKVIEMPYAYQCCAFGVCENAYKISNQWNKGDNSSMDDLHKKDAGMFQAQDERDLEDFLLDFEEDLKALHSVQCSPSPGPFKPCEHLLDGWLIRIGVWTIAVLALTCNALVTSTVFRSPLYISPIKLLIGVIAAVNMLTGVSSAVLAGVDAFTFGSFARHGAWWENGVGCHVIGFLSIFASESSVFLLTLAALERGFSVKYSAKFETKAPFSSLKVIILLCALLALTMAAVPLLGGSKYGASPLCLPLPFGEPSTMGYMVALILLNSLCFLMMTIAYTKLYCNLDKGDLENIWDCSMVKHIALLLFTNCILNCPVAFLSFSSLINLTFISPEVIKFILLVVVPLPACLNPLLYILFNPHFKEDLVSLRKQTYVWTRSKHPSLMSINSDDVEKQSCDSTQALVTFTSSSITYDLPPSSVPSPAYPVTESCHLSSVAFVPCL
Outcome: Criterion met for NanoBRET Fold Response of at least 0.9; Criterion not met for anything lower.

{"molecule": "Cc1nc2n(c(=O)c1CCN1CCC(c3noc4cc(F)ccc34)CC1)CCCC2OC(=O)NCCOCCOCCOCCOCCNC(=O)CCc1ccc2n1[B-](F)(F)[N+]1=C(c3ccc[nH]3)C=CC1=C2 (centres unmarked)", "classification": "Criterion met"}

Inquiry: Textbook exercise: given the entry "O=C(CCOCCOCCOCCOCCNC(=O)CCc1ccc2n1[B-](F)(F)[N+]1=C(c3ccc[nH]3)C=CC1=C2)NCCCN1CCN(C2=Nc3ccccc3Oc3ccc(Cl)cc32)CC1" , state whether its NanoBRET Fold Response is greater than or equal to 0.9.
Reply text: Criterion met

Inquiry: NanoBRET Fold Response >= 0.9 for "O=C(CCc1ccc2n1[B-](F)(F)[N+]1=C(c3ccc[nH]3)C=CC1=C2)NCCOCCOCCNC(=O)OCCOCCN1CCN(C2=Nc3ccccc3Sc3ccccc32)CC1" ?
Reply text: Criterion met

Inquiry: Quick check, NanoBRET Fold Response >= 0.9? "N#CN=C(NCCCOc1cccc(CN2CCCCC2)c1)NCCNC(=O)CCOCCOCCOCCOCCNC(=O)CCc1ccc2n1[B-](F)(F)[N+]1=C(c3ccc[nH]3)C=CC1=C2"
Reply text: Criterion not met

Inquiry: Threshold query (NanoBRET Fold Response >= 0.9) on "CCCn1c(=O)c2[nH]c(-c3ccc(OCC(=O)NCCNC(=O)CCOCCNC(=O)c4ccc(CNC(=O)CCc5ccc6n5[B-](F)(F)[N+]5=C(c7ccc[nH]7)C=CC5=C6)cc4)cc3)nc2n(CCC)c1=O"
Reply text: Criterion met

Inquiry: Is NanoBRET Fold Response for "COc1ccccc1N1CCN(CCCCN2C(=O)c3ccc(CNC(=O)CCOCCNC(=O)c4ccc(CNC(=O)CCc5ccc6n5[B-](F)(F)[N+]5=C(c7ccc[nH]7)C=CC5=C6)cc4)cc3C2=O)CC1" at or above 0.9?
Reply text: Criterion met

Inquiry: Assess whether reported NanoBRET Fold Response for "COc1ccccc1N1CCN(CCCCN2C(=O)c3ccc(CNC(=O)CCOCCOCCOCCOCCNC(=O)CCc4ccc5n4[B-](F)(F)[N+]4=C(c6ccc[nH]6)C=CC4=C5)cc3C2=O)CC1" sits at 0.9 or higher.
Reply text: Criterion met

Inquiry: Please indicate if the recorded NanoBRET Fold Response for O=C(CCc1ccc2n1[B-](F)(F)[N+]1=C(c3ccc[nH]3)C=CC1=C2)NCc1ccc(C(=O)NCCOCCC(=O)N[C@@H]2CC[C@@]3(O)[C@H]4Cc5ccc(O)c6c5[C@@]3(CCN4CC3CC3)[C@H]2O6)cc1 [Naltrexone-3-NB590] meets or exceeds 0.9.
Reply text: Criterion not met

###

molecular target: XCR1 (Homo sapiens, UniProt P46094); construct: purchased Promega (in-house HiBiT-GPCR construct library, NanoBRET); assay: NanoBRET screen HiBiT-XCR1 in HEK293; type: binding; settings: XCR1; tracer 0.1μM
Sequence (P46094 whole entry): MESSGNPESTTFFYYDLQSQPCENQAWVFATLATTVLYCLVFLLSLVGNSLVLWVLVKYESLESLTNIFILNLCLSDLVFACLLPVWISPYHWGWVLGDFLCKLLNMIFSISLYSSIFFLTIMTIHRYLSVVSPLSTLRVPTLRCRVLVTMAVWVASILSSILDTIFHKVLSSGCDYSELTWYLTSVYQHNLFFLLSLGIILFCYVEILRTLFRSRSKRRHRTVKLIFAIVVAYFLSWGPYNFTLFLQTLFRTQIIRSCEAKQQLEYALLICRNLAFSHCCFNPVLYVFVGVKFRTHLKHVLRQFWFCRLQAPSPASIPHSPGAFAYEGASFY
# key: entry, value: NanoBRET Fold Response
Number only, no unit.

{"molecule": "O=C(CCc1ccc2n1[B-](F)(F)[N+]1=C(c3ccc[nH]3)C=CC1=C2)NCc1ccc(C(=O)NCCOCCC(=O)N[C@@H]2CC[C@@]3(O)[C@H]4Cc5ccc(O)c6c5[C@@]3(CCN4CC3CC3)[C@H]2O6)cc1 [Naltrexone-3-NB590]", "subject-of-test": "XCR1 (Homo sapiens, UniProt P46094)", "test-value": 0.97}

Consider now this further molecule.
Inquiry: Entry CC(C)N(CC[C@H](c1ccccc1)c1cc(CCNC(=O)CCOCCOCCOCCOCCNC(=O)CCc2ccc3n2[B-](F)(F)[N+]2=C(c4ccc[nH]4)C=CC2=C3)ccc1O)C(C)C [Tolterodine-2-NB590] has what NanoBRET Fold Response?
Reply text: 0.81

###

Target: NPY2R (Homo sapiens)
Construct: purchased Promega (in-house HiBiT-GPCR construct library, NanoBRET)
Sequence (P49146 1-381): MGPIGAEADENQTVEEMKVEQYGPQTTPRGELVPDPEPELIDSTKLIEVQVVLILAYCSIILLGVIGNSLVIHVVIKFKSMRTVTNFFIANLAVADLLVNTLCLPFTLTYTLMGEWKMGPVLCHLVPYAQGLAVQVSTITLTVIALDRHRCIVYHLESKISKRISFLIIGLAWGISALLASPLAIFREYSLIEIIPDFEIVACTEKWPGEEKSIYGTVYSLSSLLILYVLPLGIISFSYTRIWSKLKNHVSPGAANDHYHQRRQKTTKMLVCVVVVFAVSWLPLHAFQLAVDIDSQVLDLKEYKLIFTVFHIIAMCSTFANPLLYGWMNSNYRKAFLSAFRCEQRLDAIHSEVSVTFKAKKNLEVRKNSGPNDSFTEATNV
Experiment: NanoBRET screen HiBiT-NPY2R in HEK293
Assay type: binding
Details: NPY2R; tracer 1μM
observation-type: NanoBRET Fold Response
// no unit string in output, number only

Examples with their reported NanoBRET Fold Response follow.
{"compound": "CC(C)N(CC[C@H](c1ccccc1)c1cc(CCNC(=O)c2ccc(CNC(=O)CCc3ccc4n3[B-](F)(F)[N+]3=C(c5ccc[nH]5)C=CC3=C4)cc2)ccc1O)C(C)C", "observation-type": "NanoBRET Fold Response", "test-value": 1.04}
{"compound": "N#CN=C(NCCCOc1cccc(CN2CCCCC2)c1)NCCNC(=O)CCOCCOCCOCCOCCNC(=O)CCc1ccc2n1[B-](F)(F)[N+]1=C(c3ccc[nH]3)C=CC1=C2", "observation-type": "NanoBRET Fold Response", "test-value": 1.00}
{"compound": "Cc1nc2n(c(=O)c1CCN1CCC(c3noc4cc(F)ccc34)CC1)CCCC2OC(=O)NCCOCCOCCOCCOCCNC(=O)CCc1ccc2n1[B-](F)(F)[N+]1=C(c3ccc[nH]3)C=CC1=C2 (centres unmarked)", "observation-type": "NanoBRET Fold Response", "test-value": 0.98}
{"compound": "O=C(CCc1ccc2n1[B-](F)(F)[N+]1=C(c3ccc[nH]3)C=CC1=C2)NCCOCCOCCNC(=O)OCCOCCN1CCN(C2=Nc3ccccc3Sc3ccccc32)CC1", "observation-type": "NanoBRET Fold Response", "test-value": 0.85}

From here, focus on the item given below.
Inquiry: Name the recorded NanoBRET Fold Response for "O=C(CCOCCOCCOCCOCCNC(=O)CCc1ccc2n1[B-](F)(F)[N+]1=C(c3ccc[nH]3)C=CC1=C2)NCCCN1CCN(C2=Nc3ccccc3Oc3ccc(Cl)cc32)CC1" .
Reply text: 1.17
